- System: LOX IMVI melanoma
- Protocol notes: NCI tumour cell line growth inhibition, 48 h
Classify as follows. Reported TGI greater than or equal to 40 µM: label 1. Reported TGI below: label 0.

Solved cases (10 shown):
| Compound | System name | Label value |
| --- | --- | --- |
| Cc1nc2ccccc2nc1NNc1ccccc1 | LOX IMVI melanoma | label 1 |
| CC1(C)CC(C)(C)CC(O)(C2(O)CC(C)(C)CC(C)(C)C2)C1 | LOX IMVI melanoma | label 1 |
| CC[C@H](C)[C@H](NC(=O)c1ccccn1)C(=O)N(C)[C@H](C[C@@H](OC(C)=O)c1nc(C(=O)N[C@@H](Cc2ccccc2)C[C@H](C)C(=O)OC)cs1)C(C)C | LOX IMVI melanoma | label 1 |
| NC(N)=NN=C(c1ccccc1)c1ccccc1 | LOX IMVI melanoma | label 1 |
| C#Cc1cc(-c2nc3ccccc3s2)ccc1N | LOX IMVI melanoma | label 0 |
| CCCCCCc1cc2c(C)c(C)c(=O)oc2cc1OCCCOc1cc2oc(=O)c(C)c(C)c2cc1CCCCCC | LOX IMVI melanoma | label 1 |
| COc1ccc(C(=O)N2c3ccccc3N(C)n3cccc3C2CC(=O)O)cc1 (stereo not drawn) | LOX IMVI melanoma | label 1 |
| C=CC(=O)N1CCN(CCCn2c(=O)c(-c3c(Cl)c(OC)cc(OC)c3Cl)cc3cnc(NC)nc32)CC1 | LOX IMVI melanoma | label 0 |
| CCCC[C@H](NC(=O)[C@H]1CCCCN1C)C(=O)N(C)[C@H](C[C@@H](OC(C)=O)c1nc(C(=O)N[C@@H](Cc2ccccc2)C[C@H](C)C(=O)OCC)cs1)C(C)C | LOX IMVI melanoma | label 0 |
| CN=c1ssc(/N=C(\SC)N(C)C)[n+]1C | LOX IMVI melanoma | label 1 |

Data request: Could you verify whether the entry COc1ccc(/C=C2\N=C(N/N=C\C(O)C(O)C(O)C(O)CO)NC2=O)cc1 (stereo not drawn) shows TGI of no less than 40 µM?
Data returned: label 1

Data request: Evaluate O=[N+]([O-])c1ccc2c(c1)c1nn2CCCCOc2nn(c3ccc([N+](=O)[O-])cc23)CCCCO1 : TGI at minimum 40 µM?
Data returned: label 1

Data request: Does the reported TGI for C1C[OH+]CC[OH+]CC[OH+]CC[OH+]CC[OH+]CC[OH+]1.[Cl-].[V] fall at or above the 40 µM mark?
Data returned: label 0

Data request: hey, is TGI for this one >= 40 µM? CC(=O)NNc1nc(C)c(C(=O)/C=C/C=C/c2ccccc2)s1
Data returned: label 1

Data request: Does CSc1nc(-c2cc3ccccc3o2)cc(-c2ccc(Cl)cc2)c1C#N have a reported TGI of at least 40 µM?
Data returned: label 1
